Cited source: patent US20150361176A1

# target: human TGF-βRII on cells (SBE-bla HEK 293T cells; A549 cells) (human, UniProt P37173 23-567); further: test concentration or dose not given here
# Sequence (P37173 23-567): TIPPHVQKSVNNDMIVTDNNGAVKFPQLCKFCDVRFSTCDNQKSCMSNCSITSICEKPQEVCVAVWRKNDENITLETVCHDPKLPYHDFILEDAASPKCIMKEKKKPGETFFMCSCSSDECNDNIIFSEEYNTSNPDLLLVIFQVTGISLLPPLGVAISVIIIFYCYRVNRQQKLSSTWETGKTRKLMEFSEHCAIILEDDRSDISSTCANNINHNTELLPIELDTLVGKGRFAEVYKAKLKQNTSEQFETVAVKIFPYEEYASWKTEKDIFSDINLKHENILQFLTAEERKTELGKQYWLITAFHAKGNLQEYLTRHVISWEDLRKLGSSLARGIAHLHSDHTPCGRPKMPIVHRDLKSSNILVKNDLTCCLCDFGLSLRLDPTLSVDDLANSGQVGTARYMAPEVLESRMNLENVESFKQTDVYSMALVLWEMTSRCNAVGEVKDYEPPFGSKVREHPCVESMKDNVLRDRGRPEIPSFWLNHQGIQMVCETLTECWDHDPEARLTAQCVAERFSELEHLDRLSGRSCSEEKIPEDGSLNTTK
# assay_protocol: cell-based or functional assay
quantity_name: max % inhibition, Average (Human IL-11 release, h1) (%)

[
  {
    "binder": "DOM23m-4 (VHH, not shown: small tags and cut ends) VHH: EVQLLESGGGLVQPGGSLRLSCAASGFTFTTYGMGWVRQAPGKGLEWVSWIEKTGNKTYYADSVKGRFTISRDNSKNTLYLQMNSLRAEDTAVYYCAKAGRHIKVRSRDFDYWGQGTLVTVSS",
    "test_value": 70.7
  },
  {
    "binder": "DOM23m-71 (VHH, not shown: small tags and cut ends) VHH: EVQLLESGGGLVQPGGSLRLSCAASGFTFMDYRMYWVRQAPGKGLEWVSGIDPTGLRTYYADSVKGRFTISRDNSKNTLYLQMNSLRAEDTAVYYCAKIKWGEMGSYKTFDYWGQGTLVTVSS",
    "test_value": -2
  },
  {
    "binder": "DOM23m-62 (VHH, not shown: small tags and cut ends) VHH: EVQLLESGGGLVQPGGSLRLSCAASGFTFGQESMYWVRQAPGKGLEWVSAISGSGGSTYYADSVKGRFTISRDNSKNTLYLQMNSLRAEDTAVYYCAKSGTRIKQGFDYWGQGTLVTVSS",
    "test_value": 79
  },
  {
    "binder": "DOM23m-72 (VHH, not shown: small tags and cut ends) VHH: EVQLLESGGGLVQPGGSLRLSCAASGFTFMDYDMSWVRQAPGKGLEWVSMIREDGGKTYYADSVKGRFTISRDNSKNTLYLQMNSLRAEDTAVYYCAKARVPYRRGHRDNFDYWGQGTLVTVSS",
    "test_value": 1.7
  }
]
